Listed below: Kd values for each entry.
# assayed target: T1, human IL-23 (human, UniProt Q9NPF7 20-189; P29460 23-328)
# T1 construct: also called hIL-23; human recombinant IL-23
# T1 sequence (looked up) 1: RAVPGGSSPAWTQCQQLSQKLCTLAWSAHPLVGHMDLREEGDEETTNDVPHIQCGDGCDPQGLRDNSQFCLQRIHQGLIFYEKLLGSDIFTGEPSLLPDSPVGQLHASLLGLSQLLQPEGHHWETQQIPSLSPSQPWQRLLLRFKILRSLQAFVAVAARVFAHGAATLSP
# T1 sequence (looked up) 2: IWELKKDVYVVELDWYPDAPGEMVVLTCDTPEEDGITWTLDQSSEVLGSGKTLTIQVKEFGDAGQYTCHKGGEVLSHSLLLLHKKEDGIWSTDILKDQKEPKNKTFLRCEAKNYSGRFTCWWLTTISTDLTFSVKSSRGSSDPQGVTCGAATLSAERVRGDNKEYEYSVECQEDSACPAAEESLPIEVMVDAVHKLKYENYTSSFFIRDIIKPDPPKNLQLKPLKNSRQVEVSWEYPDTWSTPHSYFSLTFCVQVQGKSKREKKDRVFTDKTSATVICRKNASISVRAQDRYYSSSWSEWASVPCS
# assay text: SPR, Adnectin captured by anti-His mAb, IL-23 injected
Value expressed in nM; do not type the unit.

Completed entries (count: 5):
* 1486C04 (designed binder, captured by anti-His mAb) MGVSDVPRDLEVVAATPTSLLISWGHYPMHVRYYRITYGETGGNSPVQEFTVPPHRYTATISGLKPGVDYTITVYAVTYYNEADYSQIPISINYRTEIDKPSQHHHHHH | 3.4
* 1487C03 (designed binder, captured by anti-His mAb) MGVSDVPRDLEVVAATPTSLLISWGHYPLHIRYYRITYGETGGNSPVQEFTVPKQVYTATISGLKPGVDYTITVYAVTYYNEADYSQIPISINYRTEIDKPSQHHHHHH | 2.4
* 1487G03 (designed binder, captured by anti-His mAb) MGVSDVPRDLEVVAATPTSLLISWGHYPLHVRYYRITYGETGGNSPVQEFTVPAHRYTATISGLKPGVDYTITVYAVTYYNEADYSQIPISINYRTEIDKPSQHHHHHH | 3.1
* 1572D04 (designed binder, captured by anti-His mAb) MGVSDVPRDLEVVAATPTSLLISWGHYPMHVRYYRITYGETGGNSPVQEFTVPPRRYTATISGLKPGVDYTITVYAVTYYEQPIYATIPISINYRTEIDKPSQHHHHHH | 2.9
* 1490 E02 (designed binder, captured by anti-His mAb) MGVSDVPRDLEVVAATPTSLLISWGHYPMHVRYYRITYGETGGNSPVQEFTVPRTQYTATISGLKPGVDYTITVYAVTYYNEADYSQIPISINYRTEIDKPSQHHHHHH | 4.8

In the following, a different binder is considered.
Request: Given the entry 1571G04 (designed binder, captured by anti-His mAb) MGVSDVPRDLEVVAATPTSLLISWGHYPLHVRYYRITYGETGGNSPVQEFTVPPRSHTATISGLKPGVDYTITVYAVTYYAQENYKEIPISINYRTEIDKPSQHHHHHH , report its measured Kd.
Result: 2.1
